tested on: Plasmodium falciparum; experiment: Screen against P. falciparum Asexual Blood Stage (ABS), at 5uM; format: functional, Dd2; settings: tested at 5 uM
About 2,100 (3.2%) of roughly 65,000 compounds showed an effect of 50% or more. The median lay at about -52%. The entries come from a sample that favours strong results as a whole.
readoutType: INHIBITION (%)
Kindly answer with a numeric value in %, unit omitted.

Below, 5 molecules whose answers are already recorded.
CCC(=O)N1CCC2(CC1)C(c1cccnc1)CC(=O)N2CCOC (stereo unspecified)
-104
CCOC(=O)CNC(=O)NCc1cc(C)n(-c2ccccc2OC)c1C
-24.9
O=C(NC1CC1)N1CCOCC2(C1)CN(c1ccccc1)C(=O)CO2 (stereo unspecified)
-77.9
CC1CCCCN1C(=O)CCc1nnc(-c2ccccc2)o1 (stereo unspecified)
-26.9
COc1ccc(C[C@H]2CN(c3cc(OC)ncn3)CC[C@@H]2OC)cc1
-0.505

Would you mind telling me what INHIBITION value was observed for CCC(CNC1CCN(C(C)=O)CC1)Oc1ccccc1Cl (stereo unspecified) ?
48.8

INHIBITION lookup needed for c1cnc(N2CCCC3(CCN(CC4CCOC4)CC3)C2)nc1 (stereo unspecified) , thanks.
56.4

Item "CC(C)c1nnc2n1CCN(C(=O)c1cc(Cl)c[nH]1)C2" has what recorded INHIBITION?
5.02

Please look up its INHIBITION: c1cnc(N2CCOC3(CCN(CC4CCOC4)CC3)C2)nc1 (stereo unspecified)
-13

So what does the record say about INHIBITION for Cc1ccc(CN2CCOCC3(C2)CN(c2ccc(C)s2)C(=O)CO3)o1 (stereo unspecified) ?
-71.8

Given the entry CN(C(=O)Cn1nc(-c2ccccc2)ccc1=O)C1CCS(=O)(=O)C1 (stereo unspecified) , report its measured INHIBITION.
-30.2

* * *

test system: Plasmodium falciparum; test: Screen against P. falciparum Asexual Blood Stage (ABS), at 5uM; assay type: functional, Dd2; conditions: tested at 5 uM
Screen size: about 65,000 compounds; about 2,100 (3.2%) showed an effect of 50% or more. The median lay at about -52%. What follows is part of a selection rich in strong results, with near analogues and random picks from the rest.
Mark each entry Y if its INHIBITION sits below -80%, and N for all others.

Answered cases to consult:
COc1ncccc1CNCc1c(C(C)C)nn(C)c1OC
N
COCCCNC(=O)c1cc(C(C)C)nc(N2CCCC2)n1
Y
Cc1ccc(CCN2CCCC23Cc2ccccc2CNC3=O)cc1 (centres undefined)
N
CC(C)c1nn(C)c(N(C)C)c1CNCc1ccccc1CO
N
CC(C)CNC(=O)c1nn(C)c(NC(=O)Cc2ccccc2)c1F
Y
COCc1cccc(CNCc2c(C(C)C)nn(C)c2N(C)C)c1
N
COc1ccccc1N1CCC(NCc2c(C)noc2C)C1 (centres undefined)
N
Cc1cccc(=O)n1CCC(=O)N1CC[C@](C)(O)[C@H](C)C1
Y
CC(C)c1nn(C)c(N(C)C)c1CNCc1ccccc1CN(C)C
N
COc1cccc(CN(C)C(=O)c2ccc(NC(C)=O)s2)c1OC
Y

Does the reported INHIBITION of the following molecule sit strictly below -80%? "COCc1ccccc1CNCc1c(C)nn(C)c1N(C)C"
N

Take the molecule "Cn1ccnc1CN1CCN(Cc2ccncc2)[C@@H]2CS(=O)(=O)C[C@@H]21" and say whether its INHIBITION is less than -80%.
N
